# Tested on: MLK1
# Construct: gene MAP3K9
# condition notes: concentration: 1 μM,replicates: in singlicate; n = 1;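 also: KINOMEscan kinase panel screen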
The threshold is inclusive: %Inh of exactly 3% counts as TRUE; values below receive FALSE.

Consider the worked cases shown below.
{"columns": ["compound", "label"],
 "data": [
  ["N#Cc1cccc(C(=O)NC2CCN(c3ccnc(Nc4ccc(F)cc4)n3)C2)c1 (stereo not drawn)", "FALSE"],
  ["Cl.c1ccc(Oc2ccc(Nc3ccnc4cc(-c5ccc(CN6CCNCC6)o5)ccc34)cc2)nc1", "FALSE"],
  ["COc1ccc(Nc2nccc(N3CCC(NC(=O)c4cccc(C#N)c4)C3)n2)cc1 (stereo not drawn)", "FALSE"],
  ["C[C@@H](Oc1cc(-n2cnc3cc(-c4cnn(C)c4)ccc32)sc1C(N)=O)c1ccccc1Cl", "TRUE"],
  ["NC(=O)Nc1sc(-c2ccc(F)cc2)cc1C(N)=O", "TRUE"]
]}

Req: # check: %Inh of O=C(Nc1cccc(Oc2ccc3nccn3n2)c1)Nc1cccc(C(F)(F)F)c1 is greater than or equal to 3%
Resp: FALSE

Req: Query CC(C(=O)NC1CCN(c2ccnc(Nc3ccc(F)cc3)n2)C1)c1ccc(Cl)cc1 (stereo not drawn) next
Resp: FALSE

Req: Now consider Cc1ccc(Nc2ccnc(Nc3ccc4c(c3)CS(=O)(=O)C4)n2)cc1O.Cl .
Resp: TRUE

----------
# Test system: ULK3
# condition notes: concentration: 1 μM,replicates: in singlicate; n = 1
measured property: %Inh (%)
Write the number in % without appending the unit.

Solved cases (3 shown):
{"columns": ["test smiles", "measure unit", "%Inh"],
 "data": [
  ["COC(=O)c1cccc(NC(=O)NC2CCN(c3ccnc(NCc4ccc(F)cc4)n3)CC2)c1", "%", 15],
  ["Cn1cc(-c2cccc3c(N)c(C(N)=O)nnc23)cn1", "%", 21],
  ["CN(c1ccc2c(c1)nc(NCc1ccc(F)cc1)n2C)c1ccnc(Nc2ccc(CS(C)(=O)=O)cc2)n1.Cl", "%", 21]
]}

Req: Quick check: %Inh of Cc1ccc2c(-c3ccnc(Nc4ccc(C(F)(F)F)cc4)n3)cnn2n1 ?
Resp: 21

Req: And NC(=O)c1ccc(-c2cc3ncnc(SCC(=O)O)c3s2)cc1 ?
Resp: 11

Req: // next record O=C(Nc1ccc(Oc2ccc3nc(NC(=O)C4CC4)cn3n2)c(F)c1)c1cccn(-c2ccccc2)c1=O
Resp: 0

Req: Same thing, different compound: O=C(NOCC1CC1)c1cc(Br)c(F)c(F)c1Nc1ccc(I)cc1Cl
Resp: 10

Req: Also CCCC(=O)Nc1n[nH]c2ncccc12 ?
Resp: 0

Req: Try this compound next: O=C(Nc1cccc(Oc2ccc3nccn3n2)c1)Nc1cccc(C(F)(F)F)c1
Resp: 3

----------
# Test system: PKMYT1
# condition notes: concentration: 1 μM,replicates: in singlicate; n = 1
measured property: %Inh
Lab note: write values as number then unit, every time.

{"columns": ["test smiles", "%Inh"],
 "data": [
  ["O=C(NCC1CC1)c1ccc(-c2cc(C(=O)NC3CC3)ccc2F)cc1", "0%"],
  ["O=C(Nc1n[nH]c2cc(-c3ccco3)ccc12)C1CC1", "0%"],
  ["Cn1ccc2ncnc(Oc3ccc(NC(=O)Nc4ccnc(C(F)(F)F)c4)c(Cl)c3)c21", "3%"],
  ["C[C@@H]1CCN(C(=O)N2CCCC2)C[C@@H]1N(C)c1ncnc2[nH]ccc12", "0%"],
  ["C[C@@H](Oc1cc(-n2cnc3cc(-c4ccncc4)ccc32)sc1C(N)=O)c1ccccc1Cl", "0%"],
  ["O=C(Nc1ccc(Oc2ccc3nc(NC(=O)C4CC4)cn3n2)c(F)c1)c1cccn(-c2ccccc2)c1=O", "0%"]
]}

Req: Requested read-out %Inh, target or system PKMYT1, entry c1ccc(Oc2ccc(Nc3ccnc4ccc(-c5ccccn5)cc34)cc2)cc1
Resp: 11%

Req: Do the same for CCn1c(-c2nonc2N)nc2cncc(Br)c21 please
Resp: 6%

Req: Would you mind doing CCn1c(-c2nonc2N)nc2cncc(CNC3CCNCC3)c21.Cl as well?
Resp: 3%
